SYSTEM: Fibroblast growth factor receptor 2 (Homo sapiens)
CONDITION_CONTEXT: Compound concentration 20.0 uM
Description: Thermal Shift Assay. Domain: start/stop: T457-E768
QUANTITY_KIND: ΔTm (°C)
Express the result in °C but write the number alone.

molecule="Cc1nccn1CC1CCc2c(c3ccccc3n2C)C1=O (centres undefined)" system="Fibroblast growth factor receptor 2 (Homo sapiens)" reported_value=-0.16

Look up ΔTm: Cc1c(CN2CCC(Nc3ncnc4sc(CC(F)(F)F)cc34)CC2)ccc2[nH]c(C#N)cc12
0.11

// same read-out, input: Cc1nc(-c2cnn(C)c2-c2ccc(C(F)(F)F)cn2)c2c(N3CCC3)ncnn12
0.06

// same read-out, input: COc1ccc(CNc2nc(N3CCC[C@H]3CO)ncc2C(=O)NCc2ncccn2)cc1Cl
-0.2

* * *

SYSTEM: Peregrin (Homo sapiens) (UniProt P55201)
Sequence (P55201 whole entry): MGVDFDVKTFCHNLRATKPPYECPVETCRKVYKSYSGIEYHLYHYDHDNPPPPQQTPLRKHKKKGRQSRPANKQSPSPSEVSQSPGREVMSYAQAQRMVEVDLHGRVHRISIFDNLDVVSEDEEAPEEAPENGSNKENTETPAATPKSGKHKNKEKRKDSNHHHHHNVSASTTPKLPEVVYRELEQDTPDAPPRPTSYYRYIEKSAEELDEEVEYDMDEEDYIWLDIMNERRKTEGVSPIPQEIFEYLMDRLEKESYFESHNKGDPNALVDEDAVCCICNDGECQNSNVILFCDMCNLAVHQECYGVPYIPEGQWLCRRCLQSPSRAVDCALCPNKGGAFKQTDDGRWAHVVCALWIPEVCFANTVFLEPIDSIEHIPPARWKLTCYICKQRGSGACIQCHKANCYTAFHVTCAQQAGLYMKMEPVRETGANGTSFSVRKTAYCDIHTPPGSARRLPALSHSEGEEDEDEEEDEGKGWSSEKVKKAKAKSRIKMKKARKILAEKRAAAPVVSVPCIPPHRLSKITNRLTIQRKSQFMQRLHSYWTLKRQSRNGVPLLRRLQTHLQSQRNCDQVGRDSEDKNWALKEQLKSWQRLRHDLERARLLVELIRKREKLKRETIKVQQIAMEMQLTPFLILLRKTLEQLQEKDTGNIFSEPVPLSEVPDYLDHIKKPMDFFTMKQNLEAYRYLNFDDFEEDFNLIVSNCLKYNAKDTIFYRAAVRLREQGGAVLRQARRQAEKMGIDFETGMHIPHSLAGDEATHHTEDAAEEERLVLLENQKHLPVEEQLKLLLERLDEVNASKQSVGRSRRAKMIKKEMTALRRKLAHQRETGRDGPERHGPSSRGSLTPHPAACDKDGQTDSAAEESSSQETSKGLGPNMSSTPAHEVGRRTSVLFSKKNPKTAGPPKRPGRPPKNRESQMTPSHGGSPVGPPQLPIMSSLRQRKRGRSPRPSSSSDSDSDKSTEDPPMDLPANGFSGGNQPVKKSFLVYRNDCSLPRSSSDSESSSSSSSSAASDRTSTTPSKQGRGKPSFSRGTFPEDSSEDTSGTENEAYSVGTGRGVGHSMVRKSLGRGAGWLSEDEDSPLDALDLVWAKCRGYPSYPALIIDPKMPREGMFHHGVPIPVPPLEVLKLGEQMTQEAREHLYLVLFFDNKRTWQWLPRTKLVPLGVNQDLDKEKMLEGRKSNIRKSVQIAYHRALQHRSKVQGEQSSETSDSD
CONDITION_CONTEXT: Compound concentration 20.0 uM
// map ΔTm to label using group 1 (below -0.9 °C), group 2 (-0.9 °C to below 0.6 °C), group 3 (0.6 °C or more)

compound=Oc1nc(-c2ccc(C(F)(F)F)cc2)nc2c1CSCC2 label="group 2"
compound=Cc1ncsc1-c1ccc(CNC(=O)[C@@H]2C[C@@H](O)CN2C(=O)[C@@H](NC(=O)COCCOCCOCCNC(=O)C[C@@H]2N=C(c3ccc(Cl)cc3)c3c(sc(C)c3C)-n3c(C)nnc32)C(C)(C)C)cc1 label="group 1"
compound=O=c1cc(-c2ccc(O)cc2)oc2c(CN3CCN(Cc4cccs4)CC3)c(O)cc(O)c12 label="group 3"
compound=Nc1nc(NC2CC2)cc(-c2cccc(Cl)c2Cl)n1 label="group 3"
compound=O=C1CCc2cc(OCCCCc3nnnn3C3CCCCC3)ccc2N1 label="group 1"

Quick check: band for Cc1cccc(Nc2ccncc2S(=O)(=O)NC(=O)NC(C)C)c1
group 2

// same read-out, input: NC(=O)C(CCCN=C(N)CCl)NC(=O)c1ccccc1 (centres undefined)
group 3

// same read-out, input: CCCSc1nc(N[C@@H]2C[C@H]2c2ccc(F)c(F)c2)c2nnn([C@@H]3C[C@H](OCCO)[C@@H](O)[C@H]3O)c2n1
group 2

// same read-out, input: COc1ccc([C@@H]2CNC(=O)C2)cc1OC1CCCC1
group 2

// same read-out, input: CCC(=O)N[C@H]1CC[C@@H](C(=O)N(C)c2ccc(-c3nc4ccccc4o3)cc2)C1
group 2

// same read-out, input: C[C@@H]1CCC[C@H](C)N1NC(=O)c1ccc(Cl)c(S(N)(=O)=O)c1
group 2

// same read-out, input: O=C(NCCc1cc(C(=O)NO)no1)c1ccc(Cl)c(Cl)c1
group 1

// same read-out, input: CCNC(=O)/C=C/c1cccc(Br)c1
group 1

* * *

SYSTEM: Fibroblast growth factor receptor 2 (Homo sapiens)
CONDITION_CONTEXT: Compound concentration 20.0 uM
QUANTITY_KIND: ΔTm

The cases that follow already have their ΔTm on record.
compound=COC(=O)c1ccc(CN2CCC(O)(Cn3cnc4c(-c5ccc(CN)cc5)n(C)nc4c3=O)CC2)c(Cl)c1 quantity_kind=ΔTm reported_value="-0.37 °C"
compound=CNCc1ccc(-c2[nH]c3cc(F)cc4c3c2CCNC4=O)cc1 quantity_kind=ΔTm reported_value="-0.11 °C"
compound=Cc1nn2c(nc(O)c3cccnc32)c1C#N quantity_kind=ΔTm reported_value="-0.24 °C"
compound=Nc1ncnc2c1nc(NCc1ccc(-c3ccccc3)cc1)n2[C@@H]1O[C@H](CO)[C@@H](O)[C@H]1O quantity_kind=ΔTm reported_value="0.12 °C"
compound=O=C(N1CCCC[C@H]1Cc1ccccc1)n1cc(-c2ccc(-c3ccccc3)cc2)nn1 quantity_kind=ΔTm reported_value="0.8 °C"
compound=CC(=O)N[C@@H](C)C(=O)N[C@@H](CCC(=O)O)C(=O)N[C@H](C(=O)N[C@@H](C=O)CC(=O)O)C(C)C quantity_kind=ΔTm reported_value="0.19 °C"

What measured ΔTm is associated with Oc1ccc(-c2c(-c3ccccc3)nn3c(C(F)(F)F)cc(C(F)(F)F)nc23)cc1 on Fibroblast growth factor receptor 2 (Homo sapiens)?
1.15 °C

// same read-out, input: Cn1cc(NC(=O)c2cc(F)cc(F)c2)c(C(=O)NC2CCNCC2)n1
0.66 °C

// same read-out, input: COc1cc(O)c2c(c1)/C=C\C[C@H](O)[C@H](O)C(=O)/C=C\C[C@H](C)OC2=O
2.24 °C

// same read-out, input: COc1ccc([C@@H]2CNC(=O)C2)cc1OC1CCCC1
-0.37 °C

// same read-out, input: OC1CN=C2c3ccn([C@@H]4O[C@H]([C@H](O)c5ccc(Cl)cc5)[C@@H](O)[C@H]4O)c3N=CN21 (stereo partly specified)
0.52 °C

// same read-out, input: COC[C@@H]1CCCN1S(=O)(=O)c1ccc2c(c1)C(=O)C(=O)N2
0.48 °C

// same read-out, input: CN(Cc1cccc(-c2ccncc2)c1)C(=O)Oc1ccc(-c2ccc(C(N)=O)cc2)cc1
0.69 °C
